The following molecules have recorded IC50 on FAP-expressing human WI-38 fibroblasts (Homo sapiens, UniProt Q12884).
Sequence (Q12884 whole entry): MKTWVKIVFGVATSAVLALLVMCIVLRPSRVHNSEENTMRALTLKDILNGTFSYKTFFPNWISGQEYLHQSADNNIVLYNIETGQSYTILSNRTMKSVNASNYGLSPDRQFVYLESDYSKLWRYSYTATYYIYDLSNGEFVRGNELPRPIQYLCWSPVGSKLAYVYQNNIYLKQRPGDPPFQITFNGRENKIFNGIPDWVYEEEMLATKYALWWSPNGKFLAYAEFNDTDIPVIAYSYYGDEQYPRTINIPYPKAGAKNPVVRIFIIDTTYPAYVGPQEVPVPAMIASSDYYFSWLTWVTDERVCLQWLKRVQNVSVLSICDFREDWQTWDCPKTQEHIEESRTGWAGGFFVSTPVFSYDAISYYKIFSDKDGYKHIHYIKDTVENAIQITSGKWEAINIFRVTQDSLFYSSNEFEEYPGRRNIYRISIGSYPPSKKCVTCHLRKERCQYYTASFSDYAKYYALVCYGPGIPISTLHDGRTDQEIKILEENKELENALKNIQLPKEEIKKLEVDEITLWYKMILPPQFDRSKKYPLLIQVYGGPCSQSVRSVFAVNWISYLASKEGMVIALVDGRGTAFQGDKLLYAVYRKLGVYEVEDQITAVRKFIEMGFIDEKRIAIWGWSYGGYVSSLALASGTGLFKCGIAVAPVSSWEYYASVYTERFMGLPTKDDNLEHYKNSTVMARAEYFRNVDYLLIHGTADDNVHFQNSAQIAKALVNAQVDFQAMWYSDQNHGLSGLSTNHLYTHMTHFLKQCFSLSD
Numbered stars: 1 amine (or outer) side, 2 acyl side, 3 side chain; on linkers, the order of the positions; unused ones are H or OH. Bridge positions count the residues as written; N and C are the ends. Square brackets hold non-standard residues; d marks the D form. Peptide text beside a SMILES is read from it. * marks the point of attachment. TBMB(SCH2CH2NH-DOTA) = O=C(O)CN1CCN(CC(=O)O)CCN(CC(=O)NCCSCc2cc(C[*:1])cc(C[*:2])c2)CCN(CC(=O)O)CC1; mXylylene = c1cc(C[*:1])cc(C[*:2])c1; Pentanesulfonyl = CCCCCS(=O)(=O)*

Consider the worked cases shown below.
| Molecule | IC50 |
| --- | --- |
| CCCCCC(=O)N[C@H]1CSCc2cc(CSCCNC(=O)CN3CCN(CC(=O)O)CCN(CC(N)=O)CCN(CC(=O)O)CC3)cc(c2)CSCC(C(=O)O)NC(=O)[C@H](Cc2ccccc2)NC(=O)[C@H](CCC(N)=O)NC(=O)[C@H]([C@@H](C)O)NC(=O)[C@@H]2CCCN2C(=O)[C@@H]2CCCN2C1=O (stereo partly drawn) | < 10 nM |
| CCCCNC(=O)N[C@H]1CSCc2cc(CSCCNC(=O)CCC(C(=O)O)N3CCN(CC(=O)O)CCN(CC(=O)O)CC3)cc(c2)CSCC(C(=O)O)NC(=O)[C@H](Cc2ccccc2)NC(=O)[C@H](CCC(N)=O)NC(=O)[C@H]([C@@H](C)O)NC(=O)[C@@H]2CCCN2C(=O)[C@@H]2CCCN2C1=O (stereo partly drawn) | < 10 nM |
| CCCC[C@H](NC(=O)[C@H](CCC(=O)NC[C@H](O)[C@@H](O)[C@H](O)[C@H](O)CO)NC(=O)CCC(=O)NCCCOCCOCCOCCCNC(=O)C(CNCCN)CNCCN)C(=O)N[C@H]1CSCc2cccc(c2)CSC[C@@H](C(=O)O)NC(=O)[C@H](Cc2ccccc2)NC(=O)[C@H](CCC(N)=O)NC(=O)[C@H]([C@@H](C)O)NC(=O)[C@@H]2CCCN2C(=O)[C@@H]2CCCN2C1=O | > 1000 nM |
| C=CCCOC(=O)N[C@H]1CSCc2cc(CSCCNC(=O)CN3CCN(CC(=O)O)CCN(CC(=O)O)CCN(CC(=O)O)CC3)cc(c2)CSC[C@@H](C(=O)O)NC(=O)[C@H](Cc2ccccc2)NC(=O)[C@H](CCC(N)=O)NC(=O)[C@H]([C@@H](C)O)NC(=O)[C@@H]2CCCN2C(=O)[C@@H]2CCCN2C1=O | < 10 nM |

Request: Tell me its IC50 given CSCC[C@H](NC(C)=O)C(=O)N[C@@H]1CSCc2cccc(c2)CSC[C@@H](C(=O)N[C@@H](CC(=O)O)C(=O)N[C@@H](Cc2c[nH]cn2)C(=O)N[C@@H](Cc2ccccc2)C(=O)N[C@@H](CCCNC(=N)N)C(=O)N[C@@H](CC(=O)O)C(N)=O)NC(=O)[C@H](Cc2ccccc2)NC(=O)[C@H](CCC(=O)O)NC(=O)[C@H]([C@@H](C)O)NC(=O)[C@@H]2CCCN2C(=O)[C@@H]2CCCN2C1=O [3BP-3175] (Ac-M[dC]PPTEFCDHFRD-NH2; linker 2-8 via mXylylene) as the entry.
Response: < 10 nM

Request: Tell me its IC50 given CCCCCS(=O)(=O)N[C@H]1CSCc2cc(CSCCNC(=O)CN3CCN(CC(=O)O)CCN(CC(=O)O)CCN(CC(=O)O)CC3)cc(c2)CSC[C@@H](C(=O)O)NC(=O)[C@H](Cc2ccccc2)NC(=O)[C@H](CCC(=O)O)NC(=O)[C@H]([C@@H](C)O)NC(=O)[C@@H]2CCCN2C(=O)[C@@H]2CCCN2C1=O [3BP-3691] (Pentanesulfonyl-CPPTEFC-OH; linker 1-7 via TBMB(SCH2CH2NH-DOTA)) as the entry.
Response: < 10 nM
